Hello, the source for this data is the RepoRT retention time repository (doi:10.1016/j.chroma.2012.12.030), in case you need it.

experimental.protocol: RP, Waters ACQUITY UPLC BEH C18, 100 × 2.1 mm, 1.7 µm, 60 °C, 0.3 mL/min, estimated dead time 0.73 min; A: water + 0.01% formic acid; B: methanol + 0.01% formic acid; gradient (min/%B) 0/10 14/90 16/90
condition.label: stereoisomer not certain
readout.name: LC retention time (min)

CCOC(=O)c1ccc(O)cc1
7.54
COc1cc(O)c(C(=O)c2ccccc2)cc1S(=O)(=O)O
6.4
O=C(O)c1ccccc1O
4.8
C#CC1(O)CCC2C3CCc4cc(O)ccc4C3CCC21C (stereo unspecified)
10.1
CC(=O)O[Si](CCCC(O)COC(=O)c1ccc(O)cc1)(OC(C)=O)c1ccccc1 (stereo unspecified)
5.92
O=C1OC(CN2CCOCC2)CN1N=Cc1ccc([N+](=O)[O-])o1 (stereo unspecified)
2.64

[a] Cc1cc(C)nc(NS(=O)(=O)c2ccc(N)cc2)n1
[b] CCCCC(=O)N(Cc1ccc(-c2ccccc2-c2nn[nH]n2)cc1)C(C(=O)O)C(C)C (stereo unspecified)
Lookup: Input pair: a , b . Output: entry with lower LC retention time. Returns: label corresponding to the selected item.
Found: a

====

experimental.protocol: RP, Waters ACQUITY UPLC BEH C18, 100 × 2.1 mm, 1.7 µm, 60 °C, 0.3 mL/min, estimated dead time 0.73 min; A: water + 0.01% formic acid; B: methanol + 0.01% formic acid; gradient (min/%B) 0/10 14/90 16/90
condition.label: stereoisomer not certain
readout.name: LC retention time (min)

COc1cc2c(c3oc(=O)c4c(c13)CCC4=O)C1C=COC1O2 (stereo not drawn)
7.15
CC1(C)SC2C(NC(=O)Cc3ccccc3)C(=O)N2C1C(=O)O (stereo not drawn)
7.08
CCn1cc(C(=O)O)c(=O)c2ccc(C)nc21
7.1

====

experimental.protocol: RP, Waters ACQUITY UPLC BEH C18, 100 × 2.1 mm, 1.7 µm, 60 °C, 0.3 mL/min, estimated dead time 0.73 min; A: water + 0.01% formic acid; B: methanol + 0.01% formic acid; gradient (min/%B) 0/10 14/90 16/90
condition.label: stereoisomer not certain
readout.name: LC retention time (min)

CC(=O)OC1(C(C)=O)CCC2C3C=C(C)C4=CC(=O)CCC4(C)C3CCC21C (stereo not drawn)
11.5
CCC1OC(=O)C(C)C(OC2CC(C)(OC)C(O)C(C)O2)C(C)C(OC2OC(C)CC(N(C)C)C2O)C(C)(OC)CC(C)C(=O)C(C)C(O)C1(C)O (stereo not drawn)
9.78
CCn1cc(C(=O)O)c(=O)c2cc3c(cc21)OCO3
5.67
